Data provenance: PubChem BioAssay (NCATS)

- experiment_notes: qHTS of pediatric cancer cell lines to identify multiple opportunities for drug repurposing: Primary screen for Saos-2 cells (AID 1347097); further: nearly all actives have a fitted effect of over 40% in size
- condition_info: Saos-2 viability, CellTiter-Glo ATP luminescence, 48 h; series mostly up to 46 µM
Results filed as inconclusive are left out. Calls of active or inactive are those of the source. The call rests on the fitted dose curve; in most records, active means well fitted cell-killing curve with a large enough effect; inconclusive means small, poorly fitted or top-dose-only effect; inactive means no such curve, though single readings can be large or run the other way.
Labels: 1 (active), 0 (inactive)

INSERT INTO measurements (molecule, assigned_class) VALUES
  ('CS(=O)(=O)N1CCc2c(-c3cnc(N)nc3)nc(N3CCOCC3)nc21', 1),
  ('CNC(=O)c1cccc(-c2ccc3c(N4CCOC[C@H]4C)nc(N4CCOC[C@H]4C)nc3n2)c1', 1),
  ('CC1(C)CC(O)CC(C)(C)N1[O]', 0),
  ('CC(Oc1ccc(O)cc1)(P(=O)(O)O)P(=O)(O)O', 0),
  ('COc1cccc2c1C(=O)c1c(O)c3c(c(O)c1C2=O)C[C@@](O)(C(=O)CO)C[C@@H]3O[C@H]1C[C@H](N)[C@H](OC2CCCCO2)[C@H](C)O1 (stereo partly specified)', 0),
  ('C[C@H](CCC(=O)O)[C@H]1CCC2C3C[C@H](O)[C@@H]4C[C@H](O)CC[C@]4(C)C3CC[C@@]21C (stereo partly specified)', 0),
  ('CCCNS(=O)(=O)Nc1ncnc(OCCOc2ncc(Br)cn2)c1-c1ccc(Br)cc1', 0),
  ('C=CC[C@@H]1C=C(C)C[C@H](C)C[C@H](OC)[C@H]2O[C@@](O)(C(=O)C(=O)N3CCCC[C@H]3C(=O)O[C@H](C(C)=C[C@@H]3CC[C@H](O)[C@H](OC)C3)[C@@H](C)[C@@H](O)CC1=O)[C@@H](C)C[C@@H]2OC', 1),
  ('CCCCCCCCCCCCCCCC(=O)OC[C@@H](NC(=O)C(Cl)Cl)[C@H](O)c1ccc([N+](=O)[O-])cc1', 0),
  ('Nc1nc2c(c(=O)[nH]1)N(C=O)[C@H](CNc1ccc(C(=O)N[C@@H](CCC(=O)O)C(=O)O)cc1)CN2', 0),
  ('Cc1ccc2nc(NCCN)c3ncc(C)n3c2c1', 1);
